Origin of values: ChEMBL document CHEMBL3763070

Target protein (sequence): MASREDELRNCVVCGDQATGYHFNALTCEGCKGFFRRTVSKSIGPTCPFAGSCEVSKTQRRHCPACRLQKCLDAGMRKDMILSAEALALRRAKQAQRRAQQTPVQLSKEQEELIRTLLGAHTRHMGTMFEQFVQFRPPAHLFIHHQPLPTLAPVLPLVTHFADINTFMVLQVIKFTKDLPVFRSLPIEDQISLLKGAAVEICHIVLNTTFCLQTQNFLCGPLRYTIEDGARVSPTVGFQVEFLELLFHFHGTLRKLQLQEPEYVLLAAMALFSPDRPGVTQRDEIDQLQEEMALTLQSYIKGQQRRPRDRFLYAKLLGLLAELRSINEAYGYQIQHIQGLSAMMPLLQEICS
pIC50: −log10 of the molar value.

>  <CHEMICAL SMILES>
CCOC(=O)Nc1ccc2c(c1)N(C(=O)CN)c1ccccc1CC2

>  <LT GT EQ>
<

>  <pIC50>
4.15

$$$$
>  <CHEMICAL SMILES>
CC(C)(C)OC(=O)Nc1ccc2c(c1)N(C(=O)Cn1cccc1)c1ccccc1CC2

>  <LT GT EQ>
=

>  <pIC50>
7.50

$$$$
>  <CHEMICAL SMILES>
CCCN(CCC)CC(=O)N1c2ccccc2CCc2ccc(NC(=O)OC(C)C)cc21

>  <LT GT EQ>
=

>  <pIC50>
6.93

$$$$
>  <CHEMICAL SMILES>
CCN(CC)CC(=O)N1c2ccccc2CCc2ccc(NC(=O)OC(C)(C)C)cc21

>  <LT GT EQ>
=

>  <pIC50>
5.99

$$$$
>  <CHEMICAL SMILES>
CCN(CC)CC(=O)N1c2ccccc2CCc2ccc(NC(=O)OC(C)C)cc21

>  <LT GT EQ>
=

>  <pIC50>
6.17

$$$$
